test system: E. coli ATCC 25922; experiment: MIC, agar dilution; format: cell-based; settings: E. coli ATCC 25922
Counter-ions that a name gives are not always drawn.

MOLECULE	MEASURED_TARGET	MEASUREMENT_UNITS	SIGN_QUALIFIER	MIC
CN(C)c1cc(NC(=O)CNCCCCO)c(O)c2c1C[C@H]1C[C@H]3[C@H](N(C)C)C(O)=C(C(N)=O)C(=O)[C@@]3(O)C(O)=C1C2=O	E. coli ATCC 25922	µg/mL	=	32
CN(CCO)CC(=O)Nc1cc(N(C)C)c2c(c1O)C(=O)C1=C(O)[C@]3(O)C(=O)C(C(N)=O)=C(O)[C@@H](N(C)C)C3CC1C2 (stereo partly drawn)	E. coli ATCC 25922	µg/mL	=	32
CN(C)c1cc(NC(=O)CNCCF)c(O)c2c1CC1CC3C(N(C)C)C(O)=C(C(N)=O)C(=O)C3(O)C(O)=C1C2=O (stereo not drawn)	E. coli ATCC 25922	µg/mL	=	8
CN(C)c1cc(NC(=O)CNCCO)c(O)c2c1CC1CC3C(N(C)C)C(O)=C(C(N)=O)C(=O)C3(O)C(O)=C1C2=O.Cl (stereo not drawn)	E. coli ATCC 25922	µg/mL	=	16
C#CCN(C)CC(=O)Nc1cc(N(C)C)c2c(c1O)C(=O)C1=C(O)[C@]3(O)C(=O)C(C(N)=O)=C(O)[C@@H](N(C)C)[C@@H]3C[C@@H]1C2	E. coli ATCC 25922	µg/mL	>	32
CCCCCCCNCC(=O)Nc1cc(N(C)C)c2c(c1O)C(=O)C1=C(O)[C@]3(O)C(=O)C(C(N)=O)=C(O)[C@@H](N(C)C)C3CC1C2 (stereo partly drawn) [J, dihydrochloride]	E. coli ATCC 25922	µg/mL	=	2

* * *

// values below are reported MIC
tested on: S. aureus UBMS 90-1 Tet M; assay: microbe, parasite or virus in culture; assay type: cell-based; conditions: S. aureus UBMS 90-1 Tet M
READOUT_NAME: MIC

> print(dat)
                                   compound            measured.target  readout.name  measured.result
1  CN(C)c1cc(NC(=O)CNCCO)c(O)c2c1CC1CC3C(N(C)C)C(O)=C(C(N)=O)C(=O)C3(O)C(O)=C1C2=O.Cl (stereo not drawn) [P]  S. aureus UBMS 90-1 Tet M           MIC         32 µg/mL
2  CC1CCN(CC(=O)Nc2cc(N(C)C)c3c(c2O)C(=O)C2=C(O)C4(O)C(=O)C(C(N)=O)=C(O)C(N(C)C)C4CC2C3)CC1.Cl.Cl (stereo not drawn) [G]  S. aureus UBMS 90-1 Tet M           MIC        0.5 µg/mL
3  CN(C)c1cc(NC(=O)CNOCc2ccccc2)c(O)c2c1C[C@H]1C[C@H]3[C@H](N(C)C)C(O)=C(C(N)=O)C(=O)[C@@]3(O)C(O)=C1C2=O [X]  S. aureus UBMS 90-1 Tet M           MIC          2 µg/mL

* * *

// values below are reported MIC
test system: S. aureus UBMS 88-4; test: MIC, agar dilution; type: cell-based; conditions: S. aureus UBMS 88-4
Where a name gives a salt, the structure may show the parent alone.
READOUT_NAME: MIC (µg/mL)

MOLECULE	SIGN_QUALIFIER	MEASURED_RESULT
CCCCCCCNCC(=O)Nc1cc(N(C)C)c2c(c1O)C(=O)C1=C(O)[C@]3(O)C(=O)C(C(N)=O)=C(O)[C@@H](N(C)C)C3CC1C2 (stereo partly shown) [J, dihydrochloride]	=	0.5
CC1CCN(CC(=O)Nc2cc(N(C)C)c3c(c2O)C(=O)C2=C(O)C4(O)C(=O)C(C(N)=O)=C(O)C(N(C)C)C4CC2C3)CC1.Cl.Cl (stereo not shown) [G]	=	0.5
CN(C)c1cc(NC(=O)CNCCCCO)c(O)c2c1C[C@H]1C[C@H]3[C@H](N(C)C)C(O)=C(C(N)=O)C(=O)[C@@]3(O)C(O)=C1C2=O [R]	=	8
CN(C)c1cc(NC(=O)CNCCO)c(O)c2c1CC1CC3C(N(C)C)C(O)=C(C(N)=O)C(=O)C3(O)C(O)=C1C2=O.Cl (stereo not shown) [P]	=	8
CN(C)c1cc(NC(=O)CNN2CCCCC2)c(O)c2c1CC1CC3C(N(C)C)C(O)=C(C(N)=O)C(=O)C3(O)C(O)=C1C2=O (stereo not shown) [W]	>	32
CN(C)c1cc(NC(=O)CNCC2CC2)c(O)c2c1CC1CC3C(N(C)C)C(O)=C(C(N)=O)C(=O)C3(O)C(O)=C1C2=O.Cl.Cl (stereo not shown) [K]	=	0.5
CN(C)c1cc(NC(=O)CNOCc2ccccc2)c(O)c2c1C[C@H]1C[C@H]3[C@H](N(C)C)C(O)=C(C(N)=O)C(=O)[C@@]3(O)C(O)=C1C2=O [X]	=	1
CN(C)c1cc(NC(=O)CNCCN2CCCCC2)c(O)c2c1C[C@H]1C[C@H]3[C@H](N(C)C)C(O)=C(C(N)=O)C(=O)[C@@]3(O)C(O)=C1C2=O [U]	=	8
CN(C)c1cc(NC(=O)CNCCF)c(O)c2c1CC1CC3C(N(C)C)C(O)=C(C(N)=O)C(=O)C3(O)C(O)=C1C2=O (stereo not shown) [T]	=	4
CN(C)c1cc(NC(=O)CNCC(F)(F)F)c(O)c2c1CC1CC3C(N(C)C)C(O)=C(C(N)=O)C(=O)C3(O)C(O)=C1C2=O (stereo not shown) [S]	=	4
CN(C)c1cc(NC(=O)C2CCCN2C(=O)C(F)(F)F)c(O)c2c1CC1CC3[C@H](N(C)C)C(O)=C(C(N)=O)C(=O)[C@@]3(O)C(O)=C1C2=O.Cl.Cl (stereo partly shown) [A]	=	4
C#CCN(C)CC(=O)Nc1cc(N(C)C)c2c(c1O)C(=O)C1=C(O)[C@]3(O)C(=O)C(C(N)=O)=C(O)[C@@H](N(C)C)[C@@H]3C[C@@H]1C2 [V]	=	4
CN(CCO)CC(=O)Nc1cc(N(C)C)c2c(c1O)C(=O)C1=C(O)[C@]3(O)C(=O)C(C(N)=O)=C(O)[C@@H](N(C)C)C3CC1C2 (stereo partly shown) [Q]	=	8

* * *

// values below are reported MIC
test system: S. mariescens FPOR 8733; test: MIC, agar dilution; format: cell-based
Structures can show the parent of a compound that is named as a salt.
READOUT_NAME: MIC

COMPOUND	READOUT_NAME	MEASURED_RESULT
CN(C)c1cc(NC(=O)CNCCN2CCCCC2)c(O)c2c1C[C@H]1C[C@H]3[C@H](N(C)C)C(O)=C(C(N)=O)C(=O)[C@@]3(O)C(O)=C1C2=O	MIC	> 32 µg/mL
CN(C)c1cc(NC(=O)CNCC(F)(F)F)c(O)c2c1CC1CC3C(N(C)C)C(O)=C(C(N)=O)C(=O)C3(O)C(O)=C1C2=O (stereo not shown)	MIC	> 32 µg/mL
CN(C)c1cc(NC(=O)CNCCF)c(O)c2c1CC1CC3C(N(C)C)C(O)=C(C(N)=O)C(=O)C3(O)C(O)=C1C2=O (stereo not shown)	MIC	> 32 µg/mL
CN(C)c1cc(NC(=O)CNCCCCO)c(O)c2c1C[C@H]1C[C@H]3[C@H](N(C)C)C(O)=C(C(N)=O)C(=O)[C@@]3(O)C(O)=C1C2=O	MIC	8 µg/mL
CN(C)c1cc(NC(=O)CNCC2CC2)c(O)c2c1CC1CC3C(N(C)C)C(O)=C(C(N)=O)C(=O)C3(O)C(O)=C1C2=O.Cl.Cl (stereo not shown)	MIC	8 µg/mL
CN(C)c1cc(NC(=O)CNN2CCCCC2)c(O)c2c1CC1CC3C(N(C)C)C(O)=C(C(N)=O)C(=O)C3(O)C(O)=C1C2=O (stereo not shown)	MIC	> 32 µg/mL
CN(C)c1cc(NC(=O)CNOCc2ccccc2)c(O)c2c1C[C@H]1C[C@H]3[C@H](N(C)C)C(O)=C(C(N)=O)C(=O)[C@@]3(O)C(O)=C1C2=O	MIC	> 32 µg/mL
CCCCCCCNCC(=O)Nc1cc(N(C)C)c2c(c1O)C(=O)C1=C(O)[C@]3(O)C(=O)C(C(N)=O)=C(O)[C@@H](N(C)C)C3CC1C2 (stereo partly shown) [J, dihydrochloride]	MIC	16 µg/mL
CC1CCN(CC(=O)Nc2cc(N(C)C)c3c(c2O)C(=O)C2=C(O)C4(O)C(=O)C(C(N)=O)=C(O)C(N(C)C)C4CC2C3)CC1.Cl.Cl (stereo not shown)	MIC	16 µg/mL
CN(CCO)CC(=O)Nc1cc(N(C)C)c2c(c1O)C(=O)C1=C(O)[C@]3(O)C(=O)C(C(N)=O)=C(O)[C@@H](N(C)C)C3CC1C2 (stereo partly shown)	MIC	16 µg/mL
CN(C)c1cc(NC(=O)C2CCCN2C(=O)C(F)(F)F)c(O)c2c1CC1CC3[C@H](N(C)C)C(O)=C(C(N)=O)C(=O)[C@@]3(O)C(O)=C1C2=O.Cl.Cl (stereo partly shown)	MIC	> 32 µg/mL
C#CCN(C)CC(=O)Nc1cc(N(C)C)c2c(c1O)C(=O)C1=C(O)[C@]3(O)C(=O)C(C(N)=O)=C(O)[C@@H](N(C)C)[C@@H]3C[C@@H]1C2	MIC	> 32 µg/mL
CN(C)c1cc(NC(=O)CNCCO)c(O)c2c1CC1CC3C(N(C)C)C(O)=C(C(N)=O)C(=O)C3(O)C(O)=C1C2=O.Cl (stereo not shown)	MIC	> 32 µg/mL
